Experiment: qHTS for Inhibitors of human tyrosyl-DNA phosphodiesterase 1 (TDP1): qHTS in cells in presence of CPT; further: nearly all actives have a fitted effect of over 55% in size
Settings: chicken DT40 Tdp1-/-;hTDP1 cells + 20 nM CPT, ATP luminescence, 48 h; series mostly up to 46.2 µM
About 50,000 (12%) of roughly 420,000 compounds were called active. Inconclusive results (about 26%) are left out. The call rests on the fitted dose curve; in most records, active means well fitted inhibition curve with a large enough effect; inconclusive means small, poorly fitted or top-dose-only effect; inactive means flat fitted curve, though single readings scatter. This is one part of a sample in which actives are shown more often than they occur.
One label from this list, please: active, inactive

Reference set, count: 3
[
  {
    "compound": "O=C(O)c1cccc(NC(=O)c2cc(-c3cccc(Cl)c3)nc3ccccc23)c1",
    "category": "inactive"
  },
  {
    "compound": "Cc1ccsc1C(=O)NNC(=O)COc1ccc(Br)cc1",
    "category": "inactive"
  },
  {
    "compound": "Cc1cccc(C(=O)OCC(=O)Nc2sccc2C(N)=O)c1C",
    "category": "inactive"
  }
]

Identify the outcome logged in this assay for the compound shown: Cc1ccc(NC(=O)/C(=C\c2ccccc2)NC(=O)c2ccco2)cc1 inactive

Cool, now Cn1c(Nc2cccc(Cl)c2)nc2ccccc21 inactive

Cool, now CCOc1ccc(S(=O)(=O)NCCCn2ccnc2)cc1NC(C)=O inactive

Cool, now CCCCCC(O)(CCN1CCCCC1)c1ccccc1 (stereo unspecified) inactive

Cool, now CC1CCCCC1NC(=O)COC(=O)Cc1ccc(Cl)cc1 (stereo unspecified) inactive

Cool, now COc1cc(C(C(=O)NC2CCCC2)N(C(=O)c2ccco2)c2ccccc2C(C)=O)cc(OC)c1OC (stereo unspecified) inactive

Cool, now Cc1c(C(=O)Nc2cccc(Cl)c2)cn2c(nc3ccccc32)c1C#N active

Cool, now O=S(=O)(Nc1ccc2ccccc2c1)N1CCCCC1 inactive

====

Experiment: qHTS for Inhibitors of human tyrosyl-DNA phosphodiesterase 1 (TDP1): qHTS in cells in presence of CPT; further: nearly all actives have a fitted effect of over 55% in size
Settings: chicken DT40 Tdp1-/-;hTDP1 cells + 20 nM CPT, ATP luminescence, 48 h; series mostly up to 46.2 µM
Procedure: Human tyrosyl-DNA phosphodiesterase 1 (TDP1) is a novel repair gene, and we propose to use it as a new target for anticancer drug development. […] For the primary screen, Tdp1-/-;hTDP1 cells will be exposed to small molecules in the presence or absence of CPT, and their growth kinetics will be evaluated after 48 hours by measuring ATP activity. […] The hit compounds will then be evaluated in the presence or absence of CPT using Tdp1-/- cells. […]
Among all 420,000 compounds or so, about 50,000 (12%) were called active. About 26% were inconclusive and are not listed. Calls come from the whole dose curve; as a rule, active = well fitted inhibition curve with a large enough effect; inconclusive = small, poorly fitted or top-dose-only effect; inactive = flat fitted curve, though single readings scatter. The entries come from a sample that favours actives as a whole.
One label from this list, please: 1 (active), -1 (inactive)

[
  {
    "molecule": "CC(O)CN(Cc1ccc(Cl)cc1)CC(C)O (stereo unspecified)",
    "category": -1
  }
]

Identify the outcome logged in this assay for the molecule shown: COc1ccc2nc(SCc3ccccc3)nc(C)c2c1 -1

Cool, now COc1ccccc1CN1CCNC(=O)C1CC(=O)N(C)CC1CCOCC1 (stereo unspecified) -1

====

Test: qHTS for Inhibitors of human tyrosyl-DNA phosphodiesterase 1 (TDP1): qHTS in cells in presence of CPT; further: nearly all actives have a fitted effect of over 55% in size
Settings: chicken DT40 Tdp1-/-;hTDP1 cells + 20 nM CPT, ATP luminescence, 48 h; series mostly up to 46.2 µM
Among all 420,000 compounds or so, about 50,000 (12%) were called active. About 26% were inconclusive and are not listed. Calls come from the whole dose curve; as a rule, active = well fitted inhibition curve with a large enough effect; inconclusive = small, poorly fitted or top-dose-only effect; inactive = flat fitted curve, though single readings scatter. The list comes from a sample in which actives are over-represented; it also holds close analogues and randomly drawn compounds.
One label from this list, please: label 1 (active), label 0 (inactive)

Reference set, count: 4
[
  {
    "mol": "O=C(NNC(=O)c1cccc(S(=O)(=O)Nc2ccc(Cl)cc2)c1)c1ccc(=O)[nH]c1",
    "category": "label 0"
  },
  {
    "mol": "Cc1ccc2c(cnn2C(=O)CCC(=O)NC2CCCC2)c1",
    "category": "label 0"
  },
  {
    "mol": "O=C(CC[C@H]1O[C@@H](n2ccc(=O)[nH]c2=O)[C@H](O)[C@@H]1O)N[C@H](Cc1ccccc1)C(=O)NCCCN1CCCC1=O",
    "category": "label 0"
  },
  {
    "mol": "CCN(CC)c1ccc(NC(=O)c2ccc(=O)[nH]c2)cc1S(=O)(=O)Nc1ccc(OC)cc1",
    "category": "label 1"
  }
]

Identify the outcome logged in this assay for the compound shown: Nc1nc(NC(=O)/C=C/c2ccccc2)nn1-c1ccccc1 label 0

====

Assay: qHTS for Inhibitors of human tyrosyl-DNA phosphodiesterase 1 (TDP1): qHTS in cells in presence of CPT; further: nearly all actives have a fitted effect of over 55% in size
Conditions: chicken DT40 Tdp1-/-;hTDP1 cells + 20 nM CPT, ATP luminescence, 48 h; series mostly up to 46.2 µM
Hit rate of the full screen: of about 420,000 compounds, about 50,000 (12%) were called active. Not shown: some 26% with an inconclusive outcome. Calls follow the shape of the dose curve; as a rule, active = well fitted inhibition curve with a large enough effect; inconclusive = small, poorly fitted or top-dose-only effect; inactive = flat fitted curve, though single readings scatter. This excerpt belongs to a sample that is enriched for actives.
One label from this list, please: active, inactive

Reference set, count: 5
[
  {
    "compound": "Cc1ccc(Cl)cc1NC(=O)CCC(=O)N1CC(C)Sc2ccccc21 (stereo unspecified)",
    "category": "active"
  },
  {
    "compound": "Cc1cccn2cc(-c3cccc(S(=O)(=O)N4CCCCC4)c3)nc12",
    "category": "inactive"
  },
  {
    "compound": "CCCCCc1ccc(-c2ccc(C(=O)O)cc2)nc1",
    "category": "inactive"
  },
  {
    "compound": "c1ccc(Nc2nc(N3CCOCC3)c3ccccc3n2)cc1",
    "category": "active"
  },
  {
    "compound": "Cc1ccc(CNC(=O)CCC(=O)N2CC(C)Sc3ccccc32)cc1 (stereo unspecified)",
    "category": "inactive"
  }
]

Consider the record given below.
Identify the outcome logged in this assay for the compound shown: CCCC(=O)N1CCC(CCC(=O)NC2CC2)CC1 inactive

====

Assay: qHTS for Inhibitors of human tyrosyl-DNA phosphodiesterase 1 (TDP1): qHTS in cells in presence of CPT; further: nearly all actives have a fitted effect of over 55% in size
Details: chicken DT40 Tdp1-/-;hTDP1 cells + 20 nM CPT, ATP luminescence, 48 h; series mostly up to 46.2 µM
About 50,000 (12%) of roughly 420,000 compounds were called active. Not shown: some 26% with an inconclusive outcome. Calls follow the shape of the dose curve; as a rule, active = well fitted inhibition curve with a large enough effect; inconclusive = small, poorly fitted or top-dose-only effect; inactive = flat fitted curve, though single readings scatter. This is one part of a sample in which actives are shown more often than they occur.
One label from this list, please: true (1) (active), false (0) (inactive)

Identify the outcome logged in this assay for the compound shown: COc1ccc(S(=O)(=O)N2CCC(C(=O)NCCC(=O)Nc3ccccc3OC)CC2)cc1 false (0)

Cool, now CC1(C(=O)O)CCN1C(=O)/C=C/c1ccccc1 (configuration not stated) false (0)

Cool, now Cc1cc(Nc2ccc(C)c(C)c2)n2ncnc2n1 false (0)

Cool, now O=C(NCCCn1ccnc1)C(=O)c1cn(CC(=O)N2CCCCCC2)c2ccccc12 false (0)

Cool, now Brc1ccc(Nc2c3c(nc4ncnn24)CCC3)cc1 true (1)

====

Assay: qHTS for Inhibitors of human tyrosyl-DNA phosphodiesterase 1 (TDP1): qHTS in cells in presence of CPT; further: nearly all actives have a fitted effect of over 55% in size
Details: chicken DT40 Tdp1-/-;hTDP1 cells + 20 nM CPT, ATP luminescence, 48 h; series mostly up to 46.2 µM
Out of some 420,000 compounds screened, about 50,000 (12%) were called active. Roughly 26% stayed inconclusive and do not appear here. The call rests on the fitted dose curve; in most records, active means well fitted inhibition curve with a large enough effect; inconclusive means small, poorly fitted or top-dose-only effect; inactive means flat fitted curve, though single readings scatter. This excerpt belongs to a sample that is enriched for actives.
One label from this list, please: active, inactive

Reference set, count: 3
[
  {
    "compound": "CCN(CC)S(=O)(=O)c1ccc2c(c1)nc(CN(C)C(=O)Nc1ccc(Cl)cc1)n2C",
    "category": "active"
  },
  {
    "compound": "CCNC(=O)C1(C)CCN(C(=O)c2ccccc2)C1 (stereo not drawn)",
    "category": "inactive"
  },
  {
    "compound": "CCc1ccc(C(=O)OCC(=O)Nc2cccc(S(=O)(=O)NC3=NCCCCC3)c2)cc1",
    "category": "inactive"
  }
]

Identify the outcome logged in this assay for the compound shown: CCC(=O)N1CCCc2ccccc21 inactive

Cool, now COc1ccccc1C(=O)OCC(=O)Nc1cccc(S(=O)(=O)NC2=NCCCCC2)c1 inactive

Cool, now OCCN1CCN(CCO)C1=S inactive

Cool, now CCCCOc1ccc(-c2nnc(-c3ccco3)o2)cc1 inactive

Cool, now CCN(CC)S(=O)(=O)c1ccc(Cl)c(NC(=O)c2ccncc2)c1 inactive

Cool, now Cc1ccc(CN2CCN(Cc3cccc(C)n3)CC2CCO)cc1 (stereo not drawn) inactive

Cool, now Cn1c(SCC(=O)N2CCCc3ccccc32)nc2ccccc2c1=O active

Cool, now CCOc1ccc(-c2nnc(-c3ccco3)o2)cc1 inactive

====

Test: qHTS for Inhibitors of human tyrosyl-DNA phosphodiesterase 1 (TDP1): qHTS in cells in presence of CPT; further: nearly all actives have a fitted effect of over 55% in size
Details: chicken DT40 Tdp1-/-;hTDP1 cells + 20 nM CPT, ATP luminescence, 48 h; series mostly up to 46.2 µM
In all, about 420,000 compounds went through this assay and about 50,000 (12%) were called active. Roughly 26% stayed inconclusive and do not appear here. Calls come from the whole dose curve; as a rule, active = well fitted inhibition curve with a large enough effect; inconclusive = small, poorly fitted or top-dose-only effect; inactive = flat fitted curve, though single readings scatter. This excerpt belongs to a sample that is enriched for actives.
One label from this list, please: T = active, F = inactive

Reference set, count: 3
[
  {
    "compound": "COc1cccc(NC(=O)c2cc(S(=O)(=O)N3CCc4ccccc43)cn2C)c1",
    "category": "F"
  },
  {
    "compound": "CCOc1ccc(CCNC(=O)CN(c2ccc(C)cc2)S(=O)(=O)N(C)C)cc1OCC",
    "category": "F"
  },
  {
    "compound": "Cc1cc(/C=C2/NC(=O)NC2=O)c(C)n1-c1cccnc1",
    "category": "F"
  }
]

Identify the outcome logged in this assay for the compound shown: O=C(O)c1ccc(Cn2cnc3c(=S)nc[nH]c32)cc1 F

Cool, now CCCCN(C(=O)CCNC(=O)NC12CC3CC(CC(C3)C1)C2)c1c(N)n(CCCC)c(=O)[nH]c1=O F

Cool, now CC(=O)N1CCN(CC(C)(C)NS(=O)(=O)c2ccc(C)cc2)CC1 F

Cool, now Cc1ccc(OC(=O)c2ccccc2C(=O)OCC(F)(F)C(F)F)cc1 F

Cool, now CCn1c(=S)[nH]c2cc(S(=O)(=O)N3CCOCC3)ccc21 F

Cool, now N=c1n(CCc2ccccc2)c2ccccc2n1Cc1ccccc1F T

Cool, now Cc1cccc(N2CCN(S(=O)(=O)c3ccc(-c4cc(C)no4)s3)CC2C)c1 (stereo not drawn) F

Cool, now O=C(O)c1cc(S(=O)(=O)N(Cc2ccccc2)c2cccc(C(F)(F)F)c2)ccc1Cl F

Cool, now COc1ccc(C)cc1NC(=O)NCCCCc1ccccc1 F

Cool, now Cc1ccc(CCN2CC(C(=O)NCCc3ccccc3)CC2=O)cc1 (stereo not drawn) F

Cool, now Cc1ccc(S(=O)(=O)Nc2nc3ccccc3s2)cc1[N+](=O)[O-] F

Cool, now O=C(c1cccs1)N(C(=O)c1cccs1)c1ccccn1 F

Cool, now S=C(NCCc1ccccc1)N1CCn2cccc2C1c1ccncc1 (stereo not drawn) T

Cool, now CCc1nc2c(OCCOc3ccccc3)cccn2c1N(C)C(=O)c1cccs1 T

Cool, now O=S(=O)(Cc1nnnn1-c1ccc(Br)cc1)c1ccc(F)cc1 F

Cool, now Cn1cc(CN2CCC(C(O)CCc3ccccc3)CC2)c(-c2ccccc2F)n1 (stereo not drawn) F

Cool, now CCOC(=O)CSc1nnc(NC(=O)C2CC(=O)N(c3ccc(F)cc3)C2)s1 (stereo not drawn) F

Cool, now CC1(C(=O)NCc2ccccc2)CN(S(C)(=O)=O)CC(=O)N1CC(F)(F)F (stereo not drawn) F

Cool, now Cc1ccc(S(=O)(=O)N2CCc3cc(C(=O)Nc4ccc(Cl)cc4C)ccc32)cc1 F

Cool, now Cc1cc(Nc2cccc(F)c2)n2ncnc2n1 F

Cool, now O=C(CCc1ccccc1)NCc1cccnc1 F

Cool, now Cc1cccc(NC(=O)Cn2c(=O)n(CCC(C)C)c(=O)c3cccnc32)c1 F
